test system: SU86.86, ASPC-1, and PANC-1 cells; assay: MTS cell survival assay in pancreatic cancer cells transfected with control or HEATR1 siRNA/shRNA; type: cell-based, human; conditions: HEATR1 siRNA or shRNA vs control
measurementType: Cell survival / resistance to drug in cells with HEATR1 knockdown versus control

Worked set:
{"compound": "CC[C@@]1(O)C(=O)OCc2c1cc1n(c2=O)Cc2cc3ccccc3nc2-1 [Camptothecin]", "result": "significantly resistant"}
{"compound": "O=C1[O][Pt]2([NH][C@@H]3CCCC[C@H]3[NH]2)[O]C1=O [oxaliplatin]", "result": "significantly resistant"}
{"compound": "COc1cc([C@@H]2c3cc4c(cc3[C@@H](O[C@@H]3O[C@@H]5CO[C@@H](C)O[C@H]5[C@H](O)[C@H]3O)[C@H]3COC(=O)[C@H]23)OCO4)cc(OC)c1O [etopside]", "result": "significantly resistant"}
{"compound": "CO[C@@]12[C@H](COC(N)=O)C3=C(C(=O)C(C)=C(N)C3=O)N1C[C@@H]1N[C@@H]12 [mitomycin c]", "result": "significantly resistant"}

Entry CC(=O)O[C@H]1C(=O)[C@@]2(C)[C@H]([C@H](OC(=O)c3ccccc3)[C@]3(O)C[C@H](OC(=O)[C@H](O)[C@@H](NC(=O)c4ccccc4)c4ccccc4)C(C)=C1C3(C)C)[C@]1(OC(C)=O)CO[C@@H]1C[C@@H]2O [paclitaxel] ; Cell survival / resistance to drug in cells with HEATR1 knockdown versus control = significantly resistant

Entry CCc1c2c(nc3ccc(O)cc13)-c1cc3c(c(=O)n1C2)COC(=O)[C@]3(O)CC [SN-38] ; Cell survival / resistance to drug in cells with HEATR1 knockdown versus control = significantly resistant
